Test: NCI Yeast Anticancer Drug Screen. Data for the sgs1 strain (AID 173);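 note: 0% = growth of vehicle-only control cultures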
Details: S. cerevisiae sgs1 mutant, at 3.7 µM, stronger effect = higher value
Experimental: Growth inhibition of yeast strains with defined genetic alterations is measured as a screen for potential anti-cancer activity. Selected strains with alterations in DNA damage repair or cell cycle control were exposed to compounds and growth inhibition was measured relative to vehicle treated controls. The strain used in this assay is sgs1
About 79,000 compounds went through this panel and 15% of them were active in at least one assay; those are over-represented in the sample as a whole.

>  <COMPOUND>
O=C1C=CC(=Nc2ccccc2)c2ccccc21

>  <growth inhibition [%]>
12

$$$$
>  <COMPOUND>
O=C(/C=C\c1ccc([N+](=O)[O-])o1)Nc1ccc(Cl)cc1

>  <growth inhibition [%]>
94

$$$$
>  <COMPOUND>
CC[C@@]1(OC(=O)CN(C)C)C(=O)OCc2c1cc1n(c2=O)Cc2cc3c(N)cccc3nc2-1

>  <growth inhibition [%]>
4

$$$$
>  <COMPOUND>
O=C1OC2C(O)COC2(OCc2c[nH]c3ccccc23)C1O (centres undefined) (tested in a mixture with another compound)

>  <growth inhibition [%]>
0

$$$$
>  <COMPOUND>
O=NN(CCCl)C(=O)NC1CCCCC1

>  <growth inhibition [%]>
7

$$$$
>  <COMPOUND>
NC(N)=N/N=C/c1cc(Cl)cc(Cl)c1O

>  <growth inhibition [%]>
-14

$$$$
>  <COMPOUND>
BrCc1ccccc1C(c1ccccc1)c1ccccc1

>  <growth inhibition [%]>
84

$$$$
>  <COMPOUND>
CCc1[nH]nc(C(N)=O)c1N=NN(C)C

>  <growth inhibition [%]>
-5

$$$$
>  <COMPOUND>
CN(N=O)c1ccc(/C=C/c2ccnc3ccccc23)cc1

>  <growth inhibition [%]>
3

$$$$
>  <COMPOUND>
Oc1ccc(Br)cc1C=NC1CCCCC1

>  <growth inhibition [%]>
6

$$$$
>  <COMPOUND>
Clc1c(Cl)c(Cl)c2c(nnn2C2CCCO2)c1Cl (centres undefined)

>  <growth inhibition [%]>
-13

$$$$
>  <COMPOUND>
C=C(CCCO)[C@@H]1CC[C@@](C)(O)[C@H]1C

>  <growth inhibition [%]>
-28

$$$$
>  <COMPOUND>
O=Nn1c2ccccc2c2cc([N+](=O)[O-])ccc21

>  <growth inhibition [%]>
-14

$$$$
>  <COMPOUND>
CN(N=O)C(=O)N[C@@H](C=O)[C@@H](O)[C@H](O)[C@H](O)CO

>  <growth inhibition [%]>
0

$$$$
>  <COMPOUND>
COc1ccc(C(C#N)=C2C=CC(=NO)C=C2)cc1

>  <growth inhibition [%]>
32

$$$$
>  <COMPOUND>
CCOC(=O)c1csc(Br)n1

>  <growth inhibition [%]>
-2

$$$$
>  <COMPOUND>
O=C1C=CC(=O)N1c1ccc2c(c1)OCO2

>  <growth inhibition [%]>
85

$$$$
>  <COMPOUND>
COc1cc2c(cc1C[N+](C)(C)CSc1ccccc1)-c1ccccc1CC2

>  <growth inhibition [%]>
8

$$$$
>  <COMPOUND>
S=c1[nH]nc(-c2ccc(Cl)cc2)s1

>  <growth inhibition [%]>
-13

$$$$
>  <COMPOUND>
c1ccc2c(c1)Cn1c-2nc2ccccc21

>  <growth inhibition [%]>
-21

$$$$
>  <COMPOUND>
Nc1ccc2c(=S)c3ccccc3[nH]c2c1

>  <growth inhibition [%]>
18

$$$$
>  <COMPOUND>
CC(=O)[C@]1(O)Cc2c(O)c3c(c(O)c2[C@@H](OC2CC(N)C(O)C(C)O2)C1)C(=O)c1c(OCc2ccccc2)cccc1C3=O (some centres undefined)

>  <growth inhibition [%]>
4

$$$$
>  <COMPOUND>
CCC(=O)Oc1ccc(/C=N/NC(N)=S)nc1

>  <growth inhibition [%]>
-11

$$$$
>  <COMPOUND>
COc1ccc(N=N/C(=N\NC(=O)c2cc(Br)ccc2O)c2ccc(N(CCC#N)CCC#N)cc2OC)cc1

>  <growth inhibition [%]>
37

$$$$
